Test system: A549/ATCC NSCLC
Assay: NCI-60 one-dose screen, 48 h
Settings: 10 µM
Procedure: Growth inhibition of the A549/ATCC human Non-Small Cell Lung tumor cell line is measured as a screen for anti-cancer activity. Cells are grown in 96 well plates and exposed to the test compound for 48 hours. Compounds are tested at a single concentration, which is 10^-5 M for most compounds. The reported endpoint is percent growth (GI% or GIPRCNT), where numbers from 0 - 100% represent growth inhibition, and numbers from -100% - 0 represent cell death. […]
The panel holds about 83,000 compounds, 20% with a hit somewhere; the sample as a whole holds those more often. Calls of active or inactive are those of the source. How the source made its calls: active means growth percent below 10; inactive means the rest.
Pick from 1 (yes) (active), 0 (no) (inactive) when you respond.

Exercise: Could you check what this test reported for CC[C@@H](C(=O)[C@H](C)[C@H](O)[C@@H](C)[C@H]1O[C@H]([C@@H](CC)C(=O)N(CC)CC)CC[C@H]1C)C1O[C@]2(C=C[C@@H](O)[C@]3(CC[C@@](C)([C@H]4CC[C@](O)(CC)[C@H](C)O4)O3)O2)[C@H](C)C[C@@H]1C (some centres undefined) ?
Key: 0 (no)

Exercise: Status in this test for O=C1c2c(c3c4ccccc4n(CCCCCCN4CCOCC4)c3c3[nH]c4ccccc4c23)C(=O)N1O ?
Key: 0 (no)

Exercise: Please let me know the test result on file for O=C(CCCNC(=O)c1nc(-c2ccccc2)n(-c2ccccc2)n1)NO .
Key: 0 (no)

Exercise: Test call, this compound: COc1cc2c3c(n(C4CCNCC4)c(=O)c2cc1OC)-c1cc2c(cc1C3=O)OCO2
Key: 1 (yes)

Exercise: What classification did COC1=CC(=O)OC(c2ccc(OC)cc2)C1 (centres undefined) end up with in this test?
Key: 0 (no)

Exercise: Tell me the assay call for O=S(=O)(Oc1ccc(-c2ccc3sccc3c2)cc1)c1ccccc1 please.
Key: 0 (no)

Exercise: Identify the outcome logged in this assay for the compound shown: O=C(N/N=C/c1ccc(Cl)cc1)c1ccc(Cc2n[nH]c(=O)c3cccnc23)cc1
Key: 0 (no)

Exercise: Test call, this compound: O=C(O)c1ccc(-n2cc(CNc3ccc(Oc4ccccc4)cc3)c(-c3ccccc3)n2)cc1
Key: 0 (no)

Exercise: Short answer needed: outcome of this test for CC(C)CCN(CCC(C)C)CC(=O)Nc1ccc(S(=O)(=O)c2ccc(NC(=O)CN(CCC(C)C)CCC(C)C)cc2)cc1 ?
Key: 0 (no)

Exercise: Please let me know the test result on file for COc1cc(/C=C2\CCCC3C2=Nc2ccccc2NC3c2cc(OC)c(OC)c(OC)c2)cc(OC)c1OC (centres undefined) .
Key: 1 (yes)

Exercise: Recorded test outcome, item O=C(CCCSc1nc(-c2ccc(Cl)cc2)cc(-c2ccc(Cl)cc2)n1)NO
Key: 0 (no)

Exercise: Which outcome did this test record for the compound NS(=O)(=O)Oc1ccc(NC(=O)C2CCCCCC2)cc1 ?
Key: 0 (no)

Exercise: What did this assay record as the result for CN(C)CCOc1ccc(-c2nc3sccn3c2-c2ccnc(S(C)(=O)=O)n2)cc1 ?
Key: 0 (no)

Exercise: # outcome recorded in this test, key = S=C(SSC(=S)N(c1ccccc1)c1ccccc1)N(c1ccccc1)c1ccccc1
Key: 0 (no)

Exercise: # fetch the recorded call for CSc1nc(S(C)(=O)=O)nc2[nH]c(=O)[nH]c12 here
Key: 0 (no)

Exercise: Recorded call for CCCCC(CC)CN=C(N)NC(N)=NCCCCCCN=C(N)NC(N)=NCC(CC)CCCC (centres undefined) ?
Key: 1 (yes)

Exercise: Assay outcome for O=[N+]([O-])c1cccc(/C=N/NC(=S)NC23CC4CC(CC(C4)C2)C3)c1 : what was it?
Key: 0 (no)

Exercise: So what was the verdict on Clc1ccc(C2=NN=C3C(Cc4ccccc4)=Nc4ccccc4N3C2)cc1 in this test?
Key: 0 (no)

Exercise: Which outcome was entered for the compound COc1cc(NC(=O)Nc2cnc(Nc3ccc(N4CCOCC4)cc3)nc2Oc2cccc(OC)c2)cc(OC)c1 in this test?
Key: 0 (no)

* * *

Tested on: LOX IMVI melanoma
Assay: NCI-60 one-dose screen, 48 h (100 = growth as untreated, 0 = no growth, -100 = all killed)
Conditions: 10 µM
This is part of a sample that, as a whole, favours compounds with a hit. Of some 83,000 tested, about 20% had one in any assay.
Consider the following compounds; for each one, report its growth.
Just the number please, in %, no unit attached.

Exercise: Need growth of CCN(CC)CCCC(Nc1c2ccc(Cl)cc2nc2ccc(OC)cc12)c1ccc(F)cc1 (stereo not drawn) , thanks.
Key: -73.2

Exercise: Recorded growth for O=C(Nc1ccc(OS(=O)(=O)c2ccccc2)cc1)C1CCCCC1 , please?
Key: 86.2

Exercise: Please look up its growth: O=C(/C=C/c1cccc(B(O)O)c1)c1cccc(B(O)O)c1
Key: -85.6

Exercise: # growth lookup, item O=C(Nc1ccccc1)Nc1ncnc2c1ncn2-c1ccccc1
Key: 91

Exercise: Name the recorded growth for CCOC(=O)c1cc(C(=O)c2ccc(OC)c(OC)c2)n2c1ccc1ccc3cccnc3c12 .
Key: 31.6

Exercise: Form field: reported growth of CC1(C)N=C(N)N=C(N)N1c1cccc(C#N)c1
Key: 21

Exercise: If you can, please state the reported growth value of CC[C@@H](C(=O)[C@@H](C)[C@@H](O)[C@H](C)[C@@H]1O[C@@H]([C@@H](CC)C(=O)N(CC)CC)CC[C@@H]1C)C1O[C@]2(C=CC(=O)[C@]3(CC[C@@](C)([C@H]4CC[C@](O)(CC)[C@H](C)O4)O3)O2)[C@H](C)C[C@@H]1C (stereo partly drawn) .
Key: 34.3

Exercise: Which measured growth value corresponds to O=C1c2c(c3c4ccccc4n(CCCCCCN4CCOCC4)c3c3[nH]c4ccccc4c23)C(=O)N1O ?
Key: -88.4

* * *

Tested on: SN12C renal
Experiment: NCI-60 one-dose screen, 48 h (100 = growth as untreated, 0 = no growth, -100 = all killed)
Conditions: 10 µM
Compounds without any hit were thinned out: in the full panel of roughly 83,000, 20% have a hit.
I'd appreciate it if you could supply growth values for the items below.
State just the number; it will be interpreted in %.

Exercise: Field request: growth | item: C[C@]12CC[C@@H]3c4ccc(O)cc4CC[C@H]3[C@@H]1CC[C@@H]2NS(=O)(=O)c1ccc(C(F)(F)F)cc1
Key: 42

Exercise: Need growth, item COc1ccc2nc3cc(Cl)ccc3c(N)c2c1
Key: -80.3

Exercise: // query growth value for entry CCOC(=O)c1cc(C(=O)c2cc(OC)c(OC)c(OC)c2)n2ccc(-c3cc[n+](CC(=O)c4cc(OC)c(OC)c(OC)c4)cc3)cc12
Key: 84.6

Exercise: Need growth of Cc1cc(C(C#N)c2ccc(Cl)cc2)c(Cl)cc1NC(=O)c1cc(I)cc(I)c1O (centres undefined) , thanks.
Key: 31

Exercise: Would you mind telling me what growth value was observed for COc1cccc2ccc(CC(O)(c3ccccc3)c3ccccc3)nc12 ?
Key: 93.8

Exercise: Would you kindly share the measured growth for COc1ccc(-c2cc(-c3ccc(Cl)cc3)nc(SCCCCCCC(=O)NO)n2)cc1OC ?
Key: 70.6

Exercise: Please report the recorded growth for O=C(CCCNC(=O)c1nc(-c2ccccc2)n(-c2ccccc2)n1)NO .
Key: 101

Exercise: Any idea what growth was measured for COc1ccc(C2=Cn3c(CCC(=O)c4nc5ccccc5[nH]4)nnc3SC2)cc1 ?
Key: 98.9

Exercise: Need growth, item COc1cc2cc(Oc3ccc(NC(=O)c4cc(C(F)(F)F)cc(C(F)(F)F)c4)cc3)c(C)nc2cc1OC
Key: 30.8

* * *

Test system: MOLT-4 leukemia
Assay: NCI-60 one-dose screen, 48 h (100 = growth as untreated, 0 = no growth, -100 = all killed)
Settings: 10 µM
About 83,000 compounds went through this panel and 20% of them were active in at least one assay; those are over-represented in the sample as a whole.
Group membership follows growth per the scheme LOW (below 10%), MID (10% to below 90%), HIGH (90% or more)

Exercise: Class? Entry: CCOc1ccccc1/C=N/N1CCCCCC1
Key: HIGH

Exercise: Entry Cc1ccc(S(=O)(=O)N(C)CCCCCC(=O)O)cc1 belongs to which category?
Key: HIGH

Exercise: Form field 'band' for CCC(=O)OC1CCC2C3CCC(=O)OC3C(C)(CCC(=O)O)CC12C (stereo not given)
Key: LOW

Exercise: Record CNC(=O)c1c(I)c(NC(C)=O)c(I)c(C(=O)O)c1I — which class?
Key: HIGH

Exercise: Category of C#C[C@]1(O)CCC2C3CCc4cc(OC5CCCC5)ccc4C3CC[C@@]21C (stereo not given in full) , please.
Key: MID

Exercise: Sort into band: COc1cc2cc(Oc3ccc(NC(=O)c4cc(C(F)(F)F)cc(C(F)(F)F)c4)cc3)c(C)nc2cc1OC
Key: MID

Exercise: Could you tell me which band N#Cc1c(-c2ccc(Cl)cc2)n(O)c2ccccc12 belongs to?
Key: MID

Exercise: Field: class (growth) — entry: CCCCN(CCCC)C(=O)[C@H](CC)[C@@H]1CC[C@@H](C)[C@@H]([C@H](C)[C@@H](O)[C@@H](C)C(=O)[C@H](CC)C2O[C@]3(C=C[C@@H](O)[C@]4(CC[C@@](C)([C@H]5CC[C@](O)(CC)[C@H](C)O5)O4)O3)[C@H](C)C[C@@H]2C)O1 (stereo not given in full)
Key: MID

Exercise: Given COc1ccc(Cl)cc1Nc1nc(C(F)(F)F)ccc1C(=O)N/N=C/c1cc(OC)c(OC)c(OC)c1 , name the class its growth places it in.
Key: LOW

Exercise: Hi there! Could you help me figure out the category for Cc1n[nH]c(C)c1N=Nc1cccc2c1C(=O)c1ccccc1C2=O please?
Key: MID

Exercise: For the record IC(I)I , report the class its growth corresponds to.
Key: HIGH

Exercise: Categorize the following entry: CC(=O)[C@@]12O[C@](C)(c3ccccc3)O[C@@H]1CC1C3CCC4=CC(=O)CC[C@]4(C)C3CC[C@@]12C (stereo not given in full)
Key: MID

Exercise: Which class is correct for the following molecule? Cc1ccc(C(=O)C2C(=O)C3CCC2C3)cc1 (stereo not given)
Key: HIGH

Exercise: # bin lookup: classify Cc1ccc(S(=O)(=O)N/N=C2\CCCc3ccccc32)cc1 by its growth
Key: HIGH

Exercise: Bin? CCCC1(CN2c3ccccc3Sc3ccc(Cl)cc32)CCN(CC)C1 (stereo not given)
Key: LOW

Exercise: Class? Entry: NC1=CC(=O)C(=O)c2cccnc21
Key: HIGH

Exercise: Which growth category applies to COc1cc2cc(Oc3ccc(NC(=O)Nc4cccc(C(F)(F)F)c4)cc3)c(C)nc2cc1OC here?
Key: LOW

Exercise: Consider CCN(CC)CCCOc1cccc2c1C(=O)c1cccc(OCCCN(CC)CC)c1C2=O . To which growth class does it belong?
Key: LOW

Exercise: # bin label for CCN(CC)CCOC(=O)c1cc(OCc2ccccc2)c(OCc2ccccc2)c(OCc2ccccc2)c1
Key: LOW

Exercise: The entry to classify is O=C(/C=C/c1cccc(B(O)O)c1)c1cccc(B(O)O)c1 ; which class holds it?
Key: LOW

Exercise: Hey, which category is Cc1ccc(C2NC(=S)N3C(c4ccc(C)cc4)NC(=S)N23)cc1 (stereo not given) in, do you know?
Key: MID

Exercise: Just checking, what class would you give COc1ccc(NC(=O)C2CC3C=CC2C3)c([N+](=O)[O-])c1 (stereo not given) here?
Key: MID

Exercise: Please classify: CCN(CC)CCNc1ccc(C)c2sc3cc(Cl)ccc3c(=O)c12
Key: LOW

Exercise: Sort into band: COc1cc(-c2nn(-c3cccc(NC(=O)NCCNS(=O)(=O)c4ccc(Cl)cc4)c3)cc2-c2ccncc2)ccc1Cl
Key: MID

Exercise: Which class does COc1ccc(-c2nn(-c3cccc(Cl)c3)cc2C=C(C#N)C#N)cc1 fall in?
Key: LOW

Exercise: Just checking, what class would you give COc1cc(C(=O)/C(C)=C/c2c[nH]c3ccccc23)cc(OC)c1OC here?
Key: MID

Exercise: Field: class (growth) — entry: CCN(CCCNc1cc2c(c(N)c1S(=O)(=O)O)C(=O)c1ccccc1C2=O)c1ccccc1
Key: HIGH

Exercise: Returns: class label. Input: COc1ccc(-c2cc(-c3ccccc3)nc(SCCCCCCC(=O)NO)n2)cc1
Key: MID

Exercise: Which of the defined bands does the recorded growth of CC[C@H]1OC(=O)[C@H](C)[C@@H](O[C@H]2C[C@@](C)(OC)[C@@H](O)[C@H](C)O2)[C@H](C)[C@@H](O[C@@H]2O[C@H](C)C[C@H](N(C)C)[C@H]2O)[C@](C)(OC)C/C(C)=C2/O[C@@]1(C)C=C2C sit within?
Key: LOW

Exercise: Class for COc1ccc2c(c1)C(=O)/C(=C/c1ccc([N+](=O)[O-])o1)O2 ?
Key: LOW

Exercise: Could you tell me which band OCC1OC2C(NC(=S)N2c2ccccc2)C(O)C1O (stereo not given) belongs to?
Key: HIGH

Exercise: Sort CCN1CCN(CCC(=O)Nc2cccc(-n3cc(-c4ccncc4)c(-c4ccc(Cl)c(OC)c4)n3)c2)CC1 into one of the categories.
Key: LOW

Exercise: For the record O=C1/C=C/[C@@H](O)[C@@H]2C[C@@H](O)C[C@H]2/C=C/CCC[C@H](C(F)(F)F)O1 , report the class its growth corresponds to.
Key: LOW

Exercise: Determine which band this molecule sits in: CCN(CC)CCN1c2nc3ccccc3cc2Sc2cc3ccccc3nc21
Key: LOW

Exercise: Class? Entry: CCCc1cn(CC(=O)Nc2nc3ccccc3s2)nn1
Key: HIGH

Exercise: // bin(item) where item = O=C(CI)OCC(COC(=O)CI)OC(=O)CI
Key: MID

Each recorded value in this set is attributed to PubChem BioAssay (NCI).
